biological target: murine ATGL (Mus musculus, UniProt Q8BJ56); construct: made in house; host or cells: Expi cells (lysate); test: TG hydrolase activity, Expi lysates expressing mouse ATGL + CGI-58, radiolabelled triolein; type: biochemical; details: 50 μM compound; Example 237; read-out: Inhibition of murine ATGL at 50 μM − mean [%]
Sequence (Q8BJ56 whole entry): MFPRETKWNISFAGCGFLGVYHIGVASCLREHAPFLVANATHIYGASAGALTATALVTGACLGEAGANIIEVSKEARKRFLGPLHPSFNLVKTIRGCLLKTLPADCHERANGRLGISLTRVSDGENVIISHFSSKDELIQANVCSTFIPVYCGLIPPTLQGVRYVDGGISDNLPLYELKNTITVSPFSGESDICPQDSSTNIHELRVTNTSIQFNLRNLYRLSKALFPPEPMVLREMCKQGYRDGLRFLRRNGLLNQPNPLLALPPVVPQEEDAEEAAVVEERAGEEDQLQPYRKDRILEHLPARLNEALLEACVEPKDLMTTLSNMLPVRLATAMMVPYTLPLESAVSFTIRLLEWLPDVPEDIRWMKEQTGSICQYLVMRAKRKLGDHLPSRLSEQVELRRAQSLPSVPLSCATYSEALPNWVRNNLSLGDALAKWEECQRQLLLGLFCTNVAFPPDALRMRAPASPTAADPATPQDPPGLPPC
Outcome: true (1) for inhibition at 50 µM of at least 5%; false (0) for anything lower.

Query string: Does CCOC(=O)c1cc(C)cc(-c2ccc(OCC)cc2)n1 [Example 14] have a reported inhibition at 50 µM of at least 5%?
Result string: true (1)

Query string: Does CCCCc1ccc(-c2cccc(C(=O)OC(C)C)n2)cc1 [Example 94] have a reported inhibition at 50 µM of at least 5%?
Result string: false (0)

Query string: Does CC(C)OC(=O)c1cccc(-c2ccc(C(F)(F)F)cc2)n1 [Example 41] have a reported inhibition at 50 µM of at least 5%?
Result string: true (1)

Query string: Does CC(C)OC(=O)c1cccc(-c2ccc(OCC(F)(F)F)cc2)n1 [Example 38] have a reported inhibition at 50 µM of at least 5%?
Result string: true (1)

Query string: Does COCc1ccc(-c2cccc(C(=O)OC(C)C)n2)cc1 [Example 19] have a reported inhibition at 50 µM of at least 5%?
Result string: false (0)

Query string: Does CCOc1ccc(-c2cccc(C(=O)OC3CC3)n2)cc1 [Example 21] have a reported inhibition at 50 µM of at least 5%?
Result string: false (0)

Query string: Does CC(C)OC(=O)c1cccc(-c2ccc(OC(C)C)cc2)n1 [Example 95] have a reported inhibition at 50 µM of at least 5%?
Result string: true (1)

Query string: Does CC(C)OC(=O)c1cccc(CCc2ccccc2)n1 [Example 80] have a reported inhibition at 50 µM of at least 5%?
Result string: false (0)

Query string: Does CCOc1ccc(-c2nc(C(=O)OC)cs2)cc1 [Example 122] have a reported inhibition at 50 µM of at least 5%?
Result string: false (0)

====

target: mMGL (Mus musculus, UniProt O35678); construct: made in house; host or cells: E. coli (lysate); assay: mMGL off-target inhibition; type: biochemical; conditions: read-out: mMGL off-target inhibition [% inhibition at 100 μM]
Sequence (O35678 whole entry): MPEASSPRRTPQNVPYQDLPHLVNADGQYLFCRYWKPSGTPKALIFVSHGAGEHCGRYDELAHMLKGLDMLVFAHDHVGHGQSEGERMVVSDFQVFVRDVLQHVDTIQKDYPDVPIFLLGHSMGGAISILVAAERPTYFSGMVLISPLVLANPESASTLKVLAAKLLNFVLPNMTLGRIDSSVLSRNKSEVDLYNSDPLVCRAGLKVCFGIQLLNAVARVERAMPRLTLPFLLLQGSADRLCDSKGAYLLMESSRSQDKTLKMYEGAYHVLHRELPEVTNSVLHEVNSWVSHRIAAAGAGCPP
Would you mind telling me the reported inhibition at 100 µM of each entry?
Reply numerically in %, unit not repeated.

Query string: Given the entry C#C[C@H](C)OC(=O)c1csc(-c2ccc(OCC)cc2)n1 [Example 210] , report its measured inhibition at 100 µM.
Result string: 0

Query string: Given the entry CCOc1ccc(-c2nc(C(=O)OCc3ccoc3)cs2)cc1 [Example 216] , report its measured inhibition at 100 µM.
Result string: 0

Query string: Given the entry CCOc1ccc(-c2nc(C(=O)OCc3ccsc3)cs2)cc1 [Example 215] , report its measured inhibition at 100 µM.
Result string: 0

Query string: Given the entry CCOc1ccc(-c2nc(C(=O)OCc3ccc(Cl)s3)cs2)cc1 [Example 223] , report its measured inhibition at 100 µM.
Result string: 0

Query string: Given the entry COc1cc(C(=O)OC(C)C)nc(-c2ccc(OC(C)C)cc2)c1 [Example 201] , report its measured inhibition at 100 µM.
Result string: 0

Query string: Given the entry CCOc1ccc(-c2cc(OC)cc(C(=O)OC(C)C)n2)cc1 [Example 35] , report its measured inhibition at 100 µM.
Result string: 0

Query string: Given the entry CCOc1ccc(-c2cccc(C(=O)OCc3cccs3)n2)cc1 [Example 189] , report its measured inhibition at 100 µM.
Result string: 0
